The entries below are paired with their reported -log Kd.
experimental target: HLA-A24 type molecule (product of the HLA-A*2402 gene) (human)

Use the examples below as a reference point.
binder	-log Kd
ILMTHFFSI (modifications not checked) [SEQ ID NO 96]	7.9 -log Kd (M)
WHYPCTVNF (modifications not checked) [SEQ ID NO 92]	6.39 -log Kd (M)
WLRDVWDWI (modifications not checked) [SEQ ID NO 106]	6.34 -log Kd (M)

# input for lookup
Reported -log Kd for VILDSFEPL (modifications not checked) [SEQ ID NO 84] was 5 -log Kd (M)

Entry source: patent US20150087809A1
